Molecular target: T1, recombinant OX40 protein with a His tag (Cat: 10481-H08H, Sino Biological) (UniProt P43489 29-216)
T1 construct: Bought protein; also called OX40-His (bought); not shown: His tag
T1 sequence (looked up): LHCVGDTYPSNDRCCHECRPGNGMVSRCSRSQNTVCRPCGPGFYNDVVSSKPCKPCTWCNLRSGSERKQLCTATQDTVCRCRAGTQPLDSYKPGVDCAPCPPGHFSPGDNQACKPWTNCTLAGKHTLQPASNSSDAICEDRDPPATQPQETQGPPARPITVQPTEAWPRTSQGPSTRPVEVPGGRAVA
Test: SPR, BIAcore T-200; antibody captured by anti-human IgG, OX40-His flowed; Test 1

{"Binder": "445-2 (antibody, V domains shown) VH: QVQLVQSGAEVKKPGSSVKVSCKASGYKFTSYIIHWVRQAPGQGLEWMGYINPYNEGTRYAQKFQGRVTLTADKSTSTAYMELSSLRSEDTAVYYCARGYYGSSYAMDYWGQGTTVTVSS VL: DIQMTQSPSSLSASVGDRVTITCSASQGISNYLNWYQQKPGKAIKLLIYDASTLYSGVPSRFSGSGSGTDFTLTISSLQPEDFATYYCQQYSKLPYTFGGGTKVEIK", "Measurement unit": "M⁻¹", "Ka": "7.1e+07"}
